test: Inhibition of fructose-bisphosphate aldolase (unknown origin) using FBP as substrate and NADH preincubated for 30 mins followed by substrate addition by UV-Vis spectrophotometry based TIM/GDH coupled assay; design: species or system Homo sapiens
experimental_readout: IC50 (nM)
// return numeric value only (unit: nM, not printed)

Query string: Supply recorded IC50 for O=P([O-])([O-])Oc1ccc2cc(C(P(=O)([O-])[O-])P(=O)([O-])[O-])ccc2c1.[Li+].[Li+].[Li+].[Li+].[Li+].[Li+] here.
Result string: 130

====

test: Inhibition of fructose-bisphosphate aldolase (unknown origin) using FBP as substrate and NADH preincubated for 180 mins followed by substrate addition by UV-Vis spectrophotometry based TIM/GDH coupled assay; set-up: species or system Homo sapiens
experimental_readout: IC50 (nM)
// return numeric value only (unit: nM, not printed)

Query string: Supply recorded IC50 for O=P([O-])([O-])Oc1ccc2cc(C(P(=O)([O-])[O-])P(=O)([O-])[O-])ccc2c1.[Li+].[Li+].[Li+].[Li+].[Li+].[Li+] here.
Result string: 68

All values here come from ChEMBL document CHEMBL4261646.
